System: CAKI-1 renal
Test: NCI tumour cell line growth inhibition, 48 h; in the data active means GI50 below about 0.43 µM; inactive means the rest
Please reply with one of these outcomes: active, inactive

Answered examples (10):
Could you check what this test reported for CC(C)(C)[Si](C)(C)OC1[C@@H](CNC(=O)NC(=O)CCl)O[C@@H](n2cnc3c(N)ncnc32)[C@H]1O[Si](C)(C)C(C)(C)C (some centres undefined) ? inactive

Per the assay record, what outcome was assigned to COc1ccc(-c2cnnn2-c2nonc2-n2cccc2)cc1 ? active

Any idea what this test logged for O=C(Nc1cc(Cl)ccc1O)c1ccc(Nc2ccnc(C(F)(F)F)c2)cc1 ? inactive

# fetch the recorded call for O=C1CCCN1c1ccccc1I(=O)=O here inactive

# fetch the recorded call for O=C1Nc2ccccc2/C1=C1\CCc2cc(O)ccc21 here inactive

Query: recorded result category for c1coc(-c2c3ccc(=[N+]4CCCCC4)cc-3oc3cc(N4CCCCC4)ccc23)c1 in this test active

What did the test return for CCCc1cc(=O)n2c(C(=O)Nc3ccc(Cl)cc3C)c(C(=O)Nc3ccc(F)cc3)sc2n1 ? inactive

GET /call?item= Cc1ccc(OCCOCCOCCOCCOc2ccc(C)n(O)c2=S)c(=S)n1O returns the recorded outcome of this test. active

Which outcome was assigned to CCN(CC)CCCCCCNc1cccc2cc(Br)cnc12 in this test? inactive

Recorded test outcome, item COc1cc(/C=C\c2cc(OC)c(OC)c(OC)c2)cc(N/C=C\C(=O)c2c[nH]c3ccccc23)c1OC inactive

***
Test call, this molecule: O=C(c1ccco1)c1c(C(F)(F)F)n([O-])c2ccc(C(F)(F)F)cc2[n+]1=O active

Name the outcome recorded for Nc1cc2c(cc1Br)[nH]c(=O)c1ccccc12 in the assay. inactive

Could you check what this test reported for CCCC/C(=C\C1=C(C)C(=O)C(OC)=C(OC)C1=O)C(=O)O ? inactive

Hi, do you know how COC(=O)c1cc2c(o1)-c1nccc3c1c(nc1ccccc13)C2=O came out in this test? inactive

# credit: PubChem BioAssay (NCI)
